B1: LINE1-full (parent)
chain: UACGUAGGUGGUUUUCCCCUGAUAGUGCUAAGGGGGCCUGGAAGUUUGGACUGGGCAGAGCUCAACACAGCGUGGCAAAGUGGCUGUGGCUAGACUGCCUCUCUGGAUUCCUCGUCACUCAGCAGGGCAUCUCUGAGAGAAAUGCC

- Variants of: B1
- assay_procedure: self-cleavage, relative activity (ratio to wild type); higher = more cleavage; in vitro, sequencing; the parent is a self-cleaving ribozyme
Using self-cleavage as the sorting value, the categories are lower segment (below 0.3), middle segment (0.3 to below 1), upper segment (1 or more)

Input: Looking at U5C U85C , which class would you pick?
Output: lower segment

Input: Same lookup for G25A A124G , please.
Output: middle segment

Input: Try this variant too: A79G A107G
Output: upper segment

Input: How about this variant: U1C C99U
Output: lower segment

Input: Also A57C U96C , if possible.
Output: lower segment

Input: Also, A50U U96A please.
Output: lower segment

Input: Item: A43U U46G
Output: upper segment

Input: Also, U1A U130C please.
Output: upper segment

Input: Ok, now G80U U134A
Output: upper segment

Input: Let us now turn to U13C G93U
Output: lower segment

Input: Try the variant A42G C71G
Output: middle segment

Input: What do we get for U20G C95U ?
Output: lower segment

Input: What do you get for U104C G127A ?
Output: upper segment

Input: How about G49A A65U ?
Output: lower segment

Input: Would you mind doing U14A G34C as well?
Output: upper segment

Input: Same lookup for G75U U85C , please.
Output: lower segment

Input: Ok, now A50C A67G
Output: middle segment

Input: Another: U112C U130G
Output: upper segment

Input: Same for U102C U130C
Output: upper segment

Numbers sourced from the RNAGym collection of RNA variant scans (doi:10.7554/elife.90254).
